Molecular target: human arginase-I (Mn-hArgI) (Homo sapiens, UniProt P05089)
Sequence (P05089 whole entry): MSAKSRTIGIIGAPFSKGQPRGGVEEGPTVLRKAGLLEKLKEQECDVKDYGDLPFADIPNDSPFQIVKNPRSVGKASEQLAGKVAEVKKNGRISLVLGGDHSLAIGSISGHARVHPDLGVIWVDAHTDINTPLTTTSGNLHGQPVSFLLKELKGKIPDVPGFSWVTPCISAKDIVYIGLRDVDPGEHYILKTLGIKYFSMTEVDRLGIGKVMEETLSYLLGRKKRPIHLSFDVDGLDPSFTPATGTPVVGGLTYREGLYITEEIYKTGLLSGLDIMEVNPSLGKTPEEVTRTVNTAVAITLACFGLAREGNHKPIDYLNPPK
pKi: −log10 of the molar value.
READOUT_NAME: pKi

CHEMICAL_SMILES: N=C(CCl)NCCC[C@H](N)C(=O)O
ENDPOINT_RESULT: 2.51
